# targetOrTestSystem: p53 Y220S mutant DBD (Homo sapiens, UniProt P04637, M133L/N239Y/N268D/V203A/Y220S)
# Construct: the mutant p53 DBD (residues 94–312) of interest; 6xHis (N, cleaved yes); lipoyl domain of dihydrolipoamide acetyltransferase (Bacillus stearothermophilus) (N, cleaved yes); made in house; host or cells: E. coli C41
# experimentDescription: DSF thermal shift assay, Y220S mutant
# Format: binding
# assayConditions: 250 μM compound, 8 μM protein, 5% DMSO, Rotor-Gene 6000, 180 K/h, quadruplicate, mean ± SEM (Table 3), read-out: Y220S mutant ΔTm
// label = Criterion met if ΔTm at 250 µM is not less than 2 °C, otherwise Criterion not met

smilesString: CCn1c2ccc(CNC)cc2c2ccc(-c3cnoc3)cc21
targetOrTestSystem: p53 Y220S mutant DBD (Homo sapiens, UniProt P04637, M133L/N239Y/N268D/V203A/Y220S)
labelClass: Criterion not met

smilesString: CNCc1ccc2c(c1)c1ccccc1n2CC(F)(F)F
targetOrTestSystem: p53 Y220S mutant DBD (Homo sapiens, UniProt P04637, M133L/N239Y/N268D/V203A/Y220S)
labelClass: Criterion met

smilesString: CCn1c2ccc(CNC)cc2c2ccc(-c3ccc(C)s3)cc21
targetOrTestSystem: p53 Y220S mutant DBD (Homo sapiens, UniProt P04637, M133L/N239Y/N268D/V203A/Y220S)
labelClass: Criterion not met

smilesString: CCOc1ccc2c3cc(CNC)ccc3n(CC)c2c1
targetOrTestSystem: p53 Y220S mutant DBD (Homo sapiens, UniProt P04637, M133L/N239Y/N268D/V203A/Y220S)
labelClass: Criterion not met

smilesString: CCn1c2ccc(CNC)cc2c2ccc(-c3ccco3)cc21
targetOrTestSystem: p53 Y220S mutant DBD (Homo sapiens, UniProt P04637, M133L/N239Y/N268D/V203A/Y220S)
labelClass: Criterion not met

smilesString: CCn1c2ccc(CNC)cc2c2ccc(Br)cc21
targetOrTestSystem: p53 Y220S mutant DBD (Homo sapiens, UniProt P04637, M133L/N239Y/N268D/V203A/Y220S)
labelClass: Criterion not met

smilesString: CCn1c2ccc(CNC)cc2c2ccc(-c3cscn3)cc21
targetOrTestSystem: p53 Y220S mutant DBD (Homo sapiens, UniProt P04637, M133L/N239Y/N268D/V203A/Y220S)
labelClass: Criterion met

smilesString: CCn1c2ccc(CNC)cc2c2ccc(-c3cc(C)cs3)cc21
targetOrTestSystem: p53 Y220S mutant DBD (Homo sapiens, UniProt P04637, M133L/N239Y/N268D/V203A/Y220S)
labelClass: Criterion not met

smilesString: CCn1c2ccccc2c2cc(CNC)ccc21
targetOrTestSystem: p53 Y220S mutant DBD (Homo sapiens, UniProt P04637, M133L/N239Y/N268D/V203A/Y220S)
labelClass: Criterion not met

smilesString: CNCc1ccc2c(c1)c1ccc(Br)cc1n2CC(F)(F)F
targetOrTestSystem: p53 Y220S mutant DBD (Homo sapiens, UniProt P04637, M133L/N239Y/N268D/V203A/Y220S)
labelClass: Criterion met

smilesString: CCn1c2ccc(CNC)cc2c2ccc(-c3sccc3C)cc21
targetOrTestSystem: p53 Y220S mutant DBD (Homo sapiens, UniProt P04637, M133L/N239Y/N268D/V203A/Y220S)
labelClass: Criterion not met

smilesString: CCn1c2ccc(CNC)cc2c2ccc(-c3nccs3)cc21
targetOrTestSystem: p53 Y220S mutant DBD (Homo sapiens, UniProt P04637, M133L/N239Y/N268D/V203A/Y220S)
labelClass: Criterion met

smilesString: CCn1c2ccc(CNC)cc2c2ccc(-c3cccs3)cc21
targetOrTestSystem: p53 Y220S mutant DBD (Homo sapiens, UniProt P04637, M133L/N239Y/N268D/V203A/Y220S)
labelClass: Criterion met
